Provide the recorded Population Apoptotic (%) for the entries that follow.
- System: Fibroblast
- test-name: Multiplex assay against human fibroblast
- Format: toxicity, cell-based
- condition-details: 48 h, 10 µM, compound concentration 10 uM, replicate 2
Express the reported value numerically, then name its unit.

Req: Given the entry COc1ccc(-c2ccc3ncc4c(c3c2)n(-c2ccc(N3CCNCC3)c(C(F)(F)F)c2)c(=O)n4C)cn1.O=C(O)/C=C\C(=O)O , report its measured Population Apoptotic (%).
Resp: 25%

Req: Given the entry C#Cc1cccc(Nc2ncnc3cc(OCCOC)c(OCCOC)cc23)c1 , report its measured Population Apoptotic (%).
Resp: 50%

Req: Given the entry CCc1nn(CCCN2CCN(c3cccc(Cl)c3)CC2)c(=O)n1CCOc1ccccc1.Cl [NEFAZODONE HYDROCHLORIDE] , report its measured Population Apoptotic (%).
Resp: 50%

Req: Given the entry O=c1cc(N2CCOCC2)oc2c(-c3cccc4c3sc3ccccc34)cccc12 , report its measured Population Apoptotic (%).
Resp: 64%

Req: Given the entry COc1cc(Nc2nccc(-c3cnn4nc(OC)ccc34)n2)cc(C(F)(F)F)c1 , report its measured Population Apoptotic (%).
Resp: 50%

Req: Given the entry CC(C)OC(=O)N1CCC(Oc2ncnc3c2cnn3-c2ccc(S(C)(=O)=O)cc2F)CC1 , report its measured Population Apoptotic (%).
Resp: 66%

Req: Given the entry Cl.O=C(O)c1cc(-c2ccc(C3CCNCC3)cc2)c2ccc(-c3ccc(C(F)(F)F)cc3)cc2c1 , report its measured Population Apoptotic (%).
Resp: 100%

Req: Given the entry CC(C)NC(=O)N1CC[C@H](NC2=Nc3cc(F)ccc3N(CC(F)F)c3ccc(Cl)cc32)C1 , report its measured Population Apoptotic (%).
Resp: 100%

Req: Given the entry CC(C)(C)NC[C@H](O)COc1nsnc1N1CCOCC1 , report its measured Population Apoptotic (%).
Resp: 33%

Req: Given the entry Cc1ccccc1C(c1ccccc1C)N1C2CCC1CC(O)(c1ccccc1)C2 (configuration not stated) , report its measured Population Apoptotic (%).
Resp: 100%

Req: Given the entry CCCSc1nc(N[C@@H]2C[C@H]2c2ccc(F)c(F)c2)c2nnn([C@@H]3C[C@H](OCCO)[C@@H](O)[C@H]3O)c2n1 , report its measured Population Apoptotic (%).
Resp: 75%

Req: Given the entry CCOC(=O)Nc1cc(-c2ccc(C)c(NS(C)(=O)=O)c2)nn2c(C)nnc12 , report its measured Population Apoptotic (%).
Resp: 100%

Req: Given the entry Cc1ccc2c(c1)c1c(n2CCc2ccc(C)nc2)CCN(C)C1 [LATREPIRDINE] , report its measured Population Apoptotic (%).
Resp: 100%

Req: Given the entry Cc1cccc(CN2CCN(C(c3ccccc3)c3ccc(Cl)cc3)CC2)c1.Cl.Cl (configuration not stated) , report its measured Population Apoptotic (%).
Resp: 50%

Req: Given the entry CCc1ccc(OCc2ccccc2C(=O)Nc2ccc3nc(C)cc(N)c3c2)cc1.Cl , report its measured Population Apoptotic (%).
Resp: 100%

Req: Given the entry CNC(=O)Nc1ccc(-c2nc(N3CC4CCC(C3)O4)c3cnn(C4CCC5(CC4)OCCO5)c3n2)cc1 , report its measured Population Apoptotic (%).
Resp: 33%

Req: Given the entry COC(=O)C1=C(C)NC(C)=C(C(=O)OCCCN2CCC(c3ccccc3)(c3ccccc3)CC2)[C@H]1c1cccc([N+](=O)[O-])c1 , report its measured Population Apoptotic (%).
Resp: 90%

====

Provide the recorded Population Healthy Nuclei (%) for the entries that follow.
- System: Fibroblast
- test-name: Multiplex assay against human fibroblast
- Type: toxicity, cell-based
- condition-details: 12 h, 10 µM, compound concentration 10 uM, replicate 1
Form entry: value (%) — number only.

Req: Return Population Healthy Nuclei (%) measured with Fibroblast given this compound: Cc1ccc(C)c(Oc2ccncc2C(=O)N2CCN(C3CC3)c3ccccc32)c1
Resp: 43

Req: Return Population Healthy Nuclei (%) measured with Fibroblast given this compound: COc1cc2ncn(-c3cc(OCc4ccccc4C(F)(F)F)c(C(N)=O)s3)c2cc1OC [GW843682X]
Resp: 40

Req: Return Population Healthy Nuclei (%) measured with Fibroblast given this compound: CC(C)CC(=O)Nc1[nH]nc2c1CN(C(=O)C1CCN(C)CC1)C2(C)C [PHA-793887]
Resp: 66

Req: Return Population Healthy Nuclei (%) measured with Fibroblast given this compound: O=C(c1cc2c(cc1F)OC(c1ccc(F)cc1)(c1ccc(Cl)cc1Cl)O2)N1CCOCC1 (centres undefined)
Resp: 29

====

Provide the recorded Population Hoechst High Intensity Objects (%) for the entries that follow.
- System: HEK-293T
- test-name: Multiplex assay against HEK293T
- Type: toxicity, cell-based
- condition-details: human, 12 h, 10 µM, compound concentration 10 uM, replicate 1
Form entry: value (%) — number only.

Req: Given the entry CC(C)Oc1ccccc1C(=O)Nc1ccccc1C(=O)Nc1cccc(S(=O)(=O)C(F)(F)F)c1 , report its measured Population Hoechst High Intensity Objects (%).
Resp: 13

Req: Given the entry Cc1ccc2c(c1)c1c(n2CCc2ccc(C)nc2)CCN(C)C1 [LATREPIRDINE] , report its measured Population Hoechst High Intensity Objects (%).
Resp: 24

Req: Given the entry CCc1nn(CCCN2CCN(c3cccc(Cl)c3)CC2)c(=O)n1CCOc1ccccc1.Cl [NEFAZODONE HYDROCHLORIDE] , report its measured Population Hoechst High Intensity Objects (%).
Resp: 21

Req: Given the entry Cc1c[nH]c2nccc(Oc3c(F)cc(Nc4cc(Cl)nc(N)n4)cc3F)c12 [BAY-549] , report its measured Population Hoechst High Intensity Objects (%).
Resp: 8

Req: Given the entry CCCSc1nc(N[C@@H]2C[C@H]2c2ccc(F)c(F)c2)c2nnn([C@@H]3C[C@H](OCCO)[C@@H](O)[C@H]3O)c2n1 [TICAGRELOR] , report its measured Population Hoechst High Intensity Objects (%).
Resp: 20

Req: Given the entry C=CC(=O)Nc1cccc(Sc2nc(Nc3ccc(N4CCN(C)CC4)cc3)ncc2Cl)c1 , report its measured Population Hoechst High Intensity Objects (%).
Resp: 21

Req: Given the entry COc1ccc(-c2ccc3ncc4c(c3c2)n(-c2ccc(N3CCNCC3)c(C(F)(F)F)c2)c(=O)n4C)cn1.O=C(O)/C=C\C(=O)O [BGT-226] , report its measured Population Hoechst High Intensity Objects (%).
Resp: 28

Req: Given the entry CC(C)CC(=O)Nc1[nH]nc2c1CN(C(=O)C1CCN(C)CC1)C2(C)C [PHA-793887] , report its measured Population Hoechst High Intensity Objects (%).
Resp: 12

====

Provide the recorded Population Fragmented Nuclei (%) for the entries that follow.
- System: HEK-293T
- test-name: Multiplex assay against HEK293T
- Format: toxicity, cell-based
- condition-details: human, 48 h, 1 µM, compound concentration 1 uM, replicate 2
Form entry: value (%) — number only.

Req: Given the entry CNC(=O)Nc1ccc(-c2nc(N3CC4CCC(C3)O4)c3cnn(C4CCC5(CC4)OCCO5)c3n2)cc1 , report its measured Population Fragmented Nuclei (%).
Resp: 13

Req: Given the entry COc1cc(Nc2nccc(-c3cnn4nc(OC)ccc34)n2)cc(C(F)(F)F)c1 , report its measured Population Fragmented Nuclei (%).
Resp: 5

Req: Given the entry O=C(c1cc2c(cc1F)OC(c1ccc(F)cc1)(c1ccc(Cl)cc1Cl)O2)N1CCOCC1 (configuration not stated) , report its measured Population Fragmented Nuclei (%).
Resp: 5

Req: Given the entry COC(=O)C1=C(C)NC(C)=C(C(=O)OCCCN2CCC(c3ccccc3)(c3ccccc3)CC2)[C@H]1c1cccc([N+](=O)[O-])c1 [NIGULDIPINE] , report its measured Population Fragmented Nuclei (%).
Resp: 6

Req: Given the entry CC(C)NC(=O)N1CC[C@H](NC2=Nc3cc(F)ccc3N(CC(F)F)c3ccc(Cl)cc32)C1 , report its measured Population Fragmented Nuclei (%).
Resp: 5

Req: Given the entry CC(C)Oc1ccccc1C(=O)Nc1ccccc1C(=O)Nc1cccc(S(=O)(=O)C(F)(F)F)c1 , report its measured Population Fragmented Nuclei (%).
Resp: 6

Req: Given the entry Cc1cccc(CN2CCN(C(c3ccccc3)c3ccc(Cl)cc3)CC2)c1.Cl.Cl (configuration not stated) , report its measured Population Fragmented Nuclei (%).
Resp: 10

Req: Given the entry CC1=C(C(=O)Nc2cc3cn[nH]c3cc2F)C(c2ccc(C(F)(F)F)cc2)CC(=O)N1 (configuration not stated) , report its measured Population Fragmented Nuclei (%).
Resp: 10

Req: Given the entry Cc1ccc2c(c1)c1c(n2CCc2ccc(C)nc2)CCN(C)C1 [LATREPIRDINE] , report its measured Population Fragmented Nuclei (%).
Resp: 6

Req: Given the entry COc1ccc(-c2ccc3ncc4c(c3c2)n(-c2ccc(N3CCNCC3)c(C(F)(F)F)c2)c(=O)n4C)cn1.O=C(O)/C=C\C(=O)O [BGT-226] , report its measured Population Fragmented Nuclei (%).
Resp: 10

Req: Given the entry CCc1nn(CCCN2CCN(c3cccc(Cl)c3)CC2)c(=O)n1CCOc1ccccc1.Cl [NEFAZODONE HYDROCHLORIDE] , report its measured Population Fragmented Nuclei (%).
Resp: 4

Req: Given the entry Cc1c[nH]c2nccc(Oc3c(F)cc(Nc4cc(Cl)nc(N)n4)cc3F)c12 [BAY-549] , report its measured Population Fragmented Nuclei (%).
Resp: 25

Req: Given the entry COc1ccccc1CN[C@H]1C2CCN(CC2)[C@H]1C(c1ccccc1)c1ccccc1 [CP-96345] , report its measured Population Fragmented Nuclei (%).
Resp: 3

Req: Given the entry CC(C)OC(=O)N1CCC(Oc2ncnc3c2cnn3-c2ccc(S(C)(=O)=O)cc2F)CC1 , report its measured Population Fragmented Nuclei (%).
Resp: 8

Req: Given the entry CCc1ccc(OCc2ccccc2C(=O)Nc2ccc3nc(C)cc(N)c3c2)cc1.Cl , report its measured Population Fragmented Nuclei (%).
Resp: 14

Req: Given the entry CC(C)c1noc(N2CCC(COc3ccc(-c4ccc(S(C)(=O)=O)cc4)nc3)CC2)n1 [GSK-1292263] , report its measured Population Fragmented Nuclei (%).
Resp: 4

Req: Given the entry CN1CCN(Cc2ccc(Nc3ncc(Cl)c(Nc4ccccc4S(=O)(=O)N(C)C)n3)cc2)CC1 [DUBERMATINIB] , report its measured Population Fragmented Nuclei (%).
Resp: 21
